Each entry below carries its recorded cell viability.
system: SEM cells; test: cell viability relative to DMSO control; higher = less cytotoxic; conditions: RPMI 5 mM glucose + 10% FBS; 48 h; 0.00234 µM
Form entry: enter the amount, then its unit.

Examples from the recorded data:
Compound: O=P(O)(O)C(O)(Cn1ccnc1)P(=O)(O)O
cell viability: 102%
--
Compound: Nc1ncnc2c1ncn2[C@@H]1O[C@H](CO)C[C@H]1O
cell viability: 96%
--
Compound: COc1ccc2c(c1)CN(C)CC2c1ccc(Cl)c(Cl)c1 (centres undefined)
cell viability: 112%
--
Compound: Nc1ccc([S+](=O)([O-])Nc2ccnn2-c2ccccc2)cc1
cell viability: 92.8%
--
Compound: COc1ccc(C(=O)CC2(O)C(=O)Nc3c(Cl)ccc(Cl)c32)cc1 (centres undefined)
cell viability: 98.4%
--
Compound: Cc1cccc(Nc2ccncc2[S+](=O)([O-])NC(=O)NC(C)C)c1
cell viability: 94.6%
--
Compound: CCCCOCCOc1nc(-c2ccc(C(=O)O)c(F)c2)sc1C
cell viability: 111%
--
Compound: CCCCN(CCCC)CC(O)c1cc(Cl)cc2c1-c1ccc(Cl)cc1/C2=C/c1ccc(Cl)cc1 (centres undefined)
cell viability: 95.7%

Here is the next item to consider.
May I ask what cell viability has been recorded for c1nc2c(NC3CCCCC3)nc(Nc3ccc(N4CCOCC4)cc3)nc2[nH]1 ? 113%
